We begin with a simple list: items and their reported selectivity ratio.
Assay: Therapeutic index, ratio of LC50 for human CEM-TART cells to EC50 for HIV-1 infected in human CEM-TART cells
Format: cell-based
Conditions: read-out: TI
Reply with just the number.

1) COc1ccccc1[C@@]1(O)c2ccc3[nH]c(C)c(OC)c(=O)c3c2[C@@H]2CC[C@H]1O2 :: 2

Identify selectivity ratio associated with the molecule `COc1c(C)[nH]c2ccc3c(c2c1=O)[C@@H]1CCC[C@@]3(c2ccccc2)O1`
13

* * *

Assay: Cytotoxicity against human CEM-TART cells assessed as cell viability after 72 hrs by MTT assay
Format: cell-based
Details: read-out: LC50
Below: a set of entries, each annotated with reported CC50 at 72 h.
Express it in µM; write the number only.

Solved cases (2 shown):
1. Cc1cn([C@H]2C[C@H](N=[N+]=[N-])[C@@H](CO)O2)c(=O)[nH]c1=O :: 89.5
2. COc1c(C)[nH]c2ccc3c(c2c1=O)[C@@H]1CCC[C@@]3(c2ccccc2)O1 :: 11

Shift focus to the following entry.
Look up and report measured CC50 at 72 h for this entry: `COc1ccccc1[C@@]1(O)c2ccc3[nH]c(C)c(OC)c(=O)c3c2[C@@H]2CC[C@H]1O2`
102
